Exercise: state measured pIC50 for each of the compounds provided.
# target.of.assay: human LXRβ (Homo sapiens)
# Sequence (P55055 whole entry): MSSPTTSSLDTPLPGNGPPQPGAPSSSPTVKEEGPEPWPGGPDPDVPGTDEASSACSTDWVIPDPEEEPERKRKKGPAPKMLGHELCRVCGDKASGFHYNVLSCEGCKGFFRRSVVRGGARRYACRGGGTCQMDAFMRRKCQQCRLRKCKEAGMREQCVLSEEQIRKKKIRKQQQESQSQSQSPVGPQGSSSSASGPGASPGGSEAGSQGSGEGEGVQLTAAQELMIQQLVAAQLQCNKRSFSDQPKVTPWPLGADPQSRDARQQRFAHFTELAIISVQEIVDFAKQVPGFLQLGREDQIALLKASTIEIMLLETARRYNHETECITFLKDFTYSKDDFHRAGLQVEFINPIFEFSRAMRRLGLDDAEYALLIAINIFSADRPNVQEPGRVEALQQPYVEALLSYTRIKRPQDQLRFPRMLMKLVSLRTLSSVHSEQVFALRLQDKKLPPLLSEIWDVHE
Answers are plain numbers, as −log10 of the molar value.

Worked cases, answers included:
{"input.smiles": "CCc1nc2c(C(F)(F)F)cccn2c1-c1cccc(Oc2cccc(S(=O)(=O)CC)c2)c1", "pIC50": 7.85}
{"input.smiles": "CCS(=O)(=O)c1cccc(Oc2ccc(Cl)c(-c3c(C(C)C)nc4c(C#N)cccn34)c2)c1", "pIC50": 8.17}
{"input.smiles": "CCc1nc2c(C(F)(F)F)cccn2c1-c1ccc(-c2cccc(S(C)(=O)=O)c2)nc1", "pIC50": 5.08}

Could you now consider this next compound?
Give pIC50 for CCc1nc2c(C(F)(F)F)cccn2c1-c1cccc(Oc2cccc(S(=O)(=O)CCC(C)(C)O)c2)c1
6.13
